Below, each of the compounds is paired with its reported IN-GCN2 interaction (%) value.
- target or system: IN-GCN2 interaction (6xHis-IN / GST-GCN2) (UniProt P04585+Q9P2K8)
- Sequence (Q9P2K8 192-1024, other chains not shown): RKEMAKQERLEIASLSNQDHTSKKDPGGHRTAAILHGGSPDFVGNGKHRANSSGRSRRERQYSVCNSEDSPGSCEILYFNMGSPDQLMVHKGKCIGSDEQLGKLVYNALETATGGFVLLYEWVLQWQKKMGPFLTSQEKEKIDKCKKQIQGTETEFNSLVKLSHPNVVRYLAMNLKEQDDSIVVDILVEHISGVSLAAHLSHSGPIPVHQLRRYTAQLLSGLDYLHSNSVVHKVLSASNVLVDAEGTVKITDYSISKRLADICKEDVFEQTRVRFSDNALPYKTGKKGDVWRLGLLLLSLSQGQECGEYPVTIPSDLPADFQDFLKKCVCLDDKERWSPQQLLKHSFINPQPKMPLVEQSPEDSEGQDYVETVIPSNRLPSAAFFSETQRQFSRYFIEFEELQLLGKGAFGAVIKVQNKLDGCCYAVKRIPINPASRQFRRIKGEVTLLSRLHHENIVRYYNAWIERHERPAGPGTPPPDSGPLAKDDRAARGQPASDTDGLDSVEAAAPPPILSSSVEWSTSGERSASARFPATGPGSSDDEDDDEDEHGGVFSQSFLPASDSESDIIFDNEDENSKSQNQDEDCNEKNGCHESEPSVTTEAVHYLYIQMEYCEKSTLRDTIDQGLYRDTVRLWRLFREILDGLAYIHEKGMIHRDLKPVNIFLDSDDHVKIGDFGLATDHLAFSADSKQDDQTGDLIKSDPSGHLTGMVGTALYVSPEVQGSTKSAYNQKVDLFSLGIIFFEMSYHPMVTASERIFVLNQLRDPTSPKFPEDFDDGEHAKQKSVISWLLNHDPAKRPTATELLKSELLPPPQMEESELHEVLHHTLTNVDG
- measurement description: biochemical
- Type: binding, HIV-1 IN; human GCN2
- assay setup: screen, single dose 100 µM, single replicate; residual AlphaLISA signal normalized to DMSO control
Respond with the bare value in %.

Use the examples below as a reference point.
| compound | target or system | unit name | reading |
| --- | --- | --- | --- |
| NC(=S)c1cn(C2OC(CO)C(O)C2O)c2ncnc(N)c12 (stereo not drawn) [NSC105827] | IN-GCN2 interaction (6xHis-IN / GST-GCN2) (UniProt P04585+Q9P2K8) | % | 100.77 |
| CC(=O)O[C@H]1C[C@H](O[C@H]2[C@@H](O)C[C@H](O[C@H]3[C@@H](O)C[C@H](O[C@H]4CC[C@@]5(C)[C@H](CC[C@@H]6[C@@H]5CC[C@]5(C)[C@@H](C7=CC(=O)OC7)CC[C@]65O)C4)O[C@@H]3C)O[C@@H]2C)O[C@H](C)[C@H]1O[C@@H]1O[C@H](CO)[C@@H](O)[C@H](O)[C@H]1O [NSC7532] | IN-GCN2 interaction (6xHis-IN / GST-GCN2) (UniProt P04585+Q9P2K8) | % | 117.74 |

Let us examine a further case.
Query :: Could you share what IN-GCN2 interaction (%) was measured for COc1cc2c3cc1Oc1c(O)c(OC)cc4c1[C@H](Cc1ccc(cc1)Oc1cc(ccc1O)C[C@H]3N(C)CC2)N(C)CC4 [NSC93674] , tested on IN-GCN2 interaction (6xHis-IN / GST-GCN2) (UniProt P04585+Q9P2K8)?
Result :: 63.45
